System: TE-10 (Esophageal Squamous Cell Carcinoma)
method notes: combination Emax (second highest fraction inhibited in the dose matrix, 72 h); higher = more inhibition; extreme values may be limits of the assay
Attribute: combination Emax
Give the figure only, with no unit attached.

1. CC(=O)Nc1cccc(-n2c(=O)n(C3CC3)c(=O)c3c(Nc4ccc(I)cc4F)n(C)c(=O)c(C)c32)c1 [Trametinib] + Cc1nc(-c2cn3c(n2)-c2ccc(-c4cnn(C(C)(C)C(N)=O)c4)cc2OCC3)n(C(C)C)n1 [Taselisib] (first compound max 1 µM, 7x7, partner max 10 µM)
0.965

Now, please, on to the next molecule.
What combination Emax value was documented for this molecule, COc1cccc(OCCCN)c1-c1cc(Nc2cnc(C#N)cn2)n[nH]1 [Prexasertib] + O=C(c1cc(Cc2n[nH]c(=O)c3ccccc23)ccc1F)N1CCN(C(=O)C2CC2)CC1 [Olaparib] (first compound max 1 µM, 7x7, partner max 10 µM) ? 0.892
